Below: a set of entries, each annotated with reported Kb.
- assaySystem: human H4 receptor (Homo sapiens, UniProt Q9H3N8)
- Construct: expressed in transfected cells; host or cells: HEKf cells transduced with baculovirus
- Sequence (Q9H3N8 whole entry): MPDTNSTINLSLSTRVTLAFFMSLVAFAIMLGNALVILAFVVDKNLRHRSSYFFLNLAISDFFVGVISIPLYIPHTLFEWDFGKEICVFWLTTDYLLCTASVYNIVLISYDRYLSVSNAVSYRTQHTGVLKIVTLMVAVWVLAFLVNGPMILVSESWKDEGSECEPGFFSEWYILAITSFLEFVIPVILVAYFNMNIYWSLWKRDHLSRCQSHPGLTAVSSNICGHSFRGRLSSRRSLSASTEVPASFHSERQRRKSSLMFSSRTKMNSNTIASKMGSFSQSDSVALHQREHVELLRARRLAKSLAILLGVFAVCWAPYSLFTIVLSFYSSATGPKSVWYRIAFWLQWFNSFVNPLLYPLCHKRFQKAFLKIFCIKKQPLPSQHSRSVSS
- assayProcedure: H4 Antagonist Functional cAMP Gi Assay
- Type: cell-based
- testContext: H4 antagonist activity, read-out: Human H4 CAMP fpKb (converted)
Structures can show the parent of a compound that is named as a salt.
Param answer (str): number followed by unit.

CCc1cc(-c2cc(N3CC[C@@H](NC)C3)nc(N)n2)[nH]n1	3.16 nM

stdin: Looking for the measured Kb of CN[C@@H]1CCN(c2cc(-c3cc(C4CC4)n[nH]3)nc(N)n2)C1 [Example 3-2, dihydrochloride] , can you help?
stdout: 100 nM

stdin: For CCc1n[nH]c(-c2cc(N3CC[C@@H](NC)C3)nc(N)n2)c1C , what is its reported Kb?
stdout: 31.6 nM

stdin: Find the recorded Kb belonging to CN[C@@H]1CCN(c2cc(-c3[nH]ncc3OC)nc(N)n2)C1 and report it.
stdout: 79.4 nM

----------
- assaySystem: human H4 receptor (Homo sapiens, UniProt Q9H3N8)
- Construct: expressed in transfected cells; host or cells: HEKf cells transduced with baculovirus
- assayProcedure: H4 Antagonist Functional cAMP Gi Assay
- Assay type: cell-based
- testContext: H4 antagonist activity, read-out: Human H4 CAMP fpKb (converted)
Where a name gives a salt, the structure may show the parent alone.
Binned Kb; ranges: group 1 = under 6 nM, group 2 = from 6 nM up to 20 nM, group 3 = 20 nM and over

// below: answered molecules
CN[C@@H]1CCN(c2cc(-c3cn(C)nc3C3CC3)nc(N)n2)C1 [Example 11-3, dihydrochloride]	group 3
Nc1nc(-c2cnn(C(F)(F)F)c2)cc(N2CC[C@@H](N)C2)n1 [Example 8-15, dihydrochloride]	group 1
CN[C@@H]1CCN(c2cc(-c3cn[nH]c3C(F)(F)F)nc(N)n2)C1 [Example 9-6]	group 2
CN[C@@H]1CCN(c2cc(-c3cnn(C(F)F)c3C)nc(N)n2)C1 [Example 12-3]	group 2

stdin: Record CN[C@@H]1CCN(c2cc(-c3cn[nH]c3C(C)C)nc(N)n2)C1 [Example 9-3] — which class?
stdout: group 2

stdin: Dear colleague, I would appreciate it if you could identify the bin for CN[C@@H]1CCN(c2cc(-c3cn(C(F)F)nc3C)nc(N)n2)C1 [Example 11-6] and reply at your convenience.
stdout: group 2

stdin: Assign a category based on measured Kb for Cc1cn[nH]c1-c1cc(N2CC[C@@H](N)C2)nc(N)n1 [Example 4-5] and give only the class name.
stdout: group 2

stdin: Consider CN[C@@H]1CCN(c2cc(-c3cnn(C4CCC4)c3)nc(N)n2)C1 [Example 8-5] . To which Kb class does it belong?
stdout: group 3

stdin: Bin this entry: CN[C@@H]1CCN(c2cc(-c3[nH]ncc3Br)nc(N)n2)C1 [Example 16-12]
stdout: group 1

stdin: State the band of CN[C@@H]1CCN(c2cc(-c3cnn(C)c3)nc(N)n2)C1 [Example 8-2]
stdout: group 3

----------
Recorded Kb for the following compounds
- assaySystem: human H4 receptor (Homo sapiens)
- Construct: expressed in transfected cells; host or cells: HEKf cells transduced with baculovirus
- assayProcedure: H4 Antagonist Functional cAMP Gi Assay
- Format: cell-based
- testContext: H4 antagonist activity, read-out: Human H4 CAMP fpKb (converted)
- Protocol: H4 Antagonist Functional cAMP Gi Assay HEKf cells were infected overnight using baculovirus expressing the human H4 receptor, then centrifuged at 1,200 rpm for 5 min, frozen in cell freezing medium (Sigma) and stored at −150° C. […] Following detection reagent addition and shaking at room temperature for 60 min, cAMP accumulation was measured using HTRF on a PheraStar plate reader. EC50 values were generated using a 4-parameter logistical fit equation to quantify agonist potencies. […]
API: value field is a number in nM; no unit string.

Some compounds with recorded Kb:
CN[C@@H]1CCN(c2cc(-c3[nH]nc(Cl)c3Cl)nc(N)n2)C1	0.0501
CN[C@@H]1CCN(c2cc(-c3[nH]ncc3C)nc(N)n2)C1	1.26
CN[C@@H]1CCN(c2cc(-c3[nH]nc(C)c3C(F)(F)F)nc(N)n2)C1	5.01

stdin: Kb lookup needed for CN[C@@H]1CCN(c2cc(-c3cc(C)n(C)n3)nc(N)n2)C1 [Example 5-1, diformate] , thanks.
stdout: 398

stdin: Entry CCc1[nH]ncc1-c1cc(N2CC[C@@H](NC)C2)nc(N)n1 has what Kb?
stdout: 12.6

stdin: Request the reported Kb associated with Cc1[nH]ncc1-c1cc(N2CC[C@@H](N)C2)nc(N)n1
stdout: 15.8

stdin: Please give the measured Kb for this compound: CCc1cn[nH]c1-c1cc(N2CC[C@@H](NC)C2)nc(N)n1
stdout: 10

stdin: Name the reported Kb value associated with the compound CN[C@@H]1CCN(c2cc(-c3nn(C(F)F)cc3C)nc(N)n2)C1
stdout: 39.8

stdin: What Kb value was documented for this compound, CNC1(C)CCN(c2cc(-c3[nH]ncc3C)nc(N)n2)C1 (stereo not drawn) [Example 16-2, ditrifluoroacetate] ?
stdout: 50.1

----------
Listed below: Kb values for each entry.
- assaySystem: human H4 receptor (Homo sapiens)
- Construct: expressed in transfected cells; host or cells: HEKf cells transduced with baculovirus
- assayProcedure: H4 Antagonist Functional cAMP Gi Assay
- Type: cell-based
- testContext: H4 antagonist activity, read-out: Human H4 CAMP fpKb (converted)
Where a name gives a salt, the structure may show the parent alone.
Write it as a number; the unit µM goes unstated.

CN[C@@H]1CCN(c2cc(-c3cc(C(F)F)n[nH]3)nc(N)n2)C1	0.0501

stdin: Query: Kb; subject: CN[C@@H]1CCN(c2cc(-c3cnn(CCOC)c3)nc(N)n2)C1
stdout: 0.126

stdin: Could you share which Kb value was measured for CN[C@@H]1CCN(c2cc(-c3cnn(C)c3C#N)nc(N)n2)C1 ?
stdout: 0.251

stdin: What does the record list as Kb for Cc1n[nH]c(-c2cc(N3CC[C@@H](N)C3)nc(N)n2)c1C ?
stdout: 0.398

stdin: Name the reported Kb value associated with the molecule CCn1cc(-c2cc(N3CC[C@@H](N)C3)nc(N)n2)cn1 [Example 8-17, dihydrochloride]
stdout: 0.0501

stdin: Dear colleague, I am looking for the recorded Kb of the following molecule: CN[C@@H]1CCN(c2cc(-c3cn[nH]c3C(F)F)nc(N)n2)C1
stdout: 0.0398

stdin: Query: Kb; subject: CN[C@@H]1CCN(c2cc(-c3cn(C)nc3C(F)(F)F)nc(N)n2)C1 [Example 11-4, dihydrochloride]
stdout: 0.316

stdin: Quick one: Kb for CN[C@@H]1CCN(c2cc(-c3cn(C)nc3C#N)nc(N)n2)C1 ?
stdout: 0.794

----------
- assaySystem: human H4 receptor (Homo sapiens)
- Construct: expressed in transfected cells; host or cells: HEKf cells transduced with baculovirus
- assayProcedure: H4 Antagonist Functional Dynamic Mass Redistribution Assay
- Assay type: cell-based
- testContext: H4 antagonist activity, read-out: Human H4 DMR fpKb (converted)
- Experimental: H4 Antagonist Functional Dynamic Mass Redistribution Assay HEKf cells were infected using baculovirus expressing the human H4 receptor, plated into fibronectin-coated EPIC plates at a density of 10,000 cells/well and incubated overnight at 37° C. […] Following 2 h equilibration at room temperature, 30 nL of H4 ligands prepared in DMSO were stamped by LabCyte ECHO acoustic dispensing into seeded EPIC plates and cellular dynamic mass redistribution was monitored using a Corning EPIC plate reader. […]
Counter-ions that a name gives are not always drawn.
metricName: Kb (nM)
The reply should be a number in nM, with the unit left off.

CN[C@@H]1CCN(c2cc(-c3[nH]ncc3C(F)F)nc(N)n2)C1 [Example 16-8, ditrifluoroacetate]	25.1
CNC1CN(c2cc(-c3cc(C(F)(F)F)n[nH]3)nc(N)n2)C1	10
CN[C@@H]1CCN(c2cc(-c3cn[nH]c3C(C)C)nc(N)n2)C1	15.8
CN[C@@H]1CCN(c2cc(N)nc(-c3[nH]ncc3C)c2)C1 [Example 18-1, ditrifluoroacetate]	0.631
CN[C@@H]1CCN(c2cc(-c3cnn(C)c3)nc(N)n2)C1	1.26
CN[C@@H]1CCN(c2cc(-c3cnn(CCOC)c3)nc(N)n2)C1	126
CN[C@@H]1CCN(c2cc(N)nc(-c3cnn(C)c3C)c2)C1 [Example 14-1, dihydrochloride]	12.6
CN[C@@H]1CCN(c2cc(-c3cn[nH]c3C(F)(F)F)nc(N)n2)C1	2.51

stdin: Give the measured Kb of CN[C@@H]1CCN(c2cc(-c3[nH]ncc3C(F)(F)F)nc(N)n2)C1 [Example 16-9, ditrifluoroacetate] .
stdout: 20

stdin: What measured Kb goes with CN[C@@H]1CCN(c2cc(-c3cnn(C(F)F)c3C)nc(N)n2)C1 ?
stdout: 6.31

stdin: GET /values?readout=Kb&item= CN[C@@H]1CCN(c2cc(-c3cn(C(F)F)nc3C)nc(N)n2)C1
stdout: 3.98

stdin: Need Kb, item CN[C@@H]1CCN(c2cc(-c3cnn(C4CC4)c3)nc(N)n2)C1
stdout: 20

stdin: What value of measured Kb is listed for CN[C@@H]1CCN(c2cc(-c3[nH]ncc3C)nc(N)n2)C1 ?
stdout: 0.501

stdin: What value of Kb has been recorded for this entry: CN[C@@H]1CCN(c2cc(-c3[nH]nc(C)c3C)nc(N)n2)C1 [Example 7-1, dihydrochloride]
stdout: 20

stdin: Entry CN[C@@H]1CCN(c2cc(-c3c(C)nn(C)c3C)nc(N)n2)C1 has what Kb?
stdout: 5.01

stdin: I would be grateful if you could share the reported Kb for CN[C@@H]1CCN(c2cc(-c3[nH]nc(C)c3F)nc(N)n2)C1 .
stdout: 3.98

stdin: For the compound CNC1CN(c2cc(-c3[nH]nc(C)c3Cl)nc(N)n2)C1 , what Kb is on record?
stdout: 0.794

stdin: Please report the recorded Kb for CN[C@@H]1CCN(c2cc(-c3c(C)n[nH]c3C)nc(N)n2)C1 .
stdout: 39.8

stdin: Can you look up the measured Kb of CNC1CN(c2cc(-c3[nH]ncc3Br)nc(N)n2)C1 for me?
stdout: 5.01

stdin: Field request: Kb | item: CN[C@@H]1CCN(c2cc(-c3[nH]ncc3Br)nc(N)n2)C1
stdout: 0.126
